system: Luciferin 4-monooxygenase (Photinus pyralis)
methodSummary: firefly luciferase enzyme inhibitors, primary screen, biochemical, luminescence, purified enzyme, 2006 set (AID 1141);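 further: cell-free assay with purified firefly luciferase at 100 ng per well in PBS; test concentration not given here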
measurementSetup: SteadyGlo luminescence, 30 min, higher = more signal, called active from +8 up or from −8 down
Class definitions on z-score: bucket A (below -1), bucket B (-1 to below 0.3), bucket C (0.3 or more)

Which band does "[N-]=[N+]=NCc1ccccc1[C@@H]1OC(c2ccc(OCCCO)cc2)=N[C@]1(Cc1ccccc1)C(=O)N1CCCCC1" fall in? bucket A

Which band does "O=C1O[C@H](c2ccccc2)[C@H](c2ccccc2)N2[C@H]1[C@@H](C(=O)N1CCN(c3ncccn3)CC1)[C@]1(C(=O)Nc3ccccc31)[C@H]2c1ccc(OCCO)cc1" fall in? bucket C

Which class is correct for the following compound? "C=C[C@H](COC(C)=O)N(Cc1ccc(OC(C)=O)c(OC)c1)S(=O)(=O)c1ccc(Br)cc1" bucket B

Class? Entry: "CN(C)C(=O)[C@@]1(CCC(=O)OC(C)(C)C)N=C(c2ccc(OCCCO)cc2)O[C@H]1c1ccccc1" bucket B

Could you tell me which band "COCCOC(=O)N1C(=O)[C@@]2(c3cc(C#CCC(C(=O)OC)C(=O)OC)ccc31)[C@H](C(=O)N1CCCCCCC1)[C@H]1C(=O)O[C@H](c3ccccc3)[C@H](c3ccccc3)N1[C@@H]2c1ccc(OCCO)cc1" belongs to? bucket B

Consider "COC(=O)[C@@]1(Cc2ccc(OC)cc2)[C@H]2c3cc(C(=O)N4CCCC4)n(CCc4c[nH]c5cc(F)ccc45)c3C[C@H]2CN1C(=O)c1ccccc1" . To which z-score class does it belong? bucket C

# bin label for "Cc1c(NC(=O)CC#N)c(=O)n(-c2ccccc2)n1C" bucket C

Just checking, what class would you give "COc1ccc([Si](C)(C)[C@@H]2[C@@H](CCn3cc([C@H](O)c4ccccc4)nn3)O[C@]3(C(=O)N(Cc4cccc(N5CCOC5=O)c4)c4ccccc43)[C@H]2C)cc1" here? bucket A

Could you place "COC(=O)[C@@]1(Cc2ccccc2N=[N+]=[N-])COC(c2ccc(OCCCO)cc2)=N1" in its proper category? Many thanks. bucket A

Hello team, could you let me know which band the following compound falls into: O=C1OCCC=C[C@H]2OC34C=CCN(c5ccc6ccccc6c5)C(=O)[C@H]3N(CCCCCO)C(=O)[C@@H]4C12 (stereo partly drawn) bucket A

Assign a category based on measured z-score for CC(C)C(O)C1C=CC2C(=O)N(c3ccccc3)C(=O)C2N1Nc1ccc(C#N)cc1 (stereo not drawn) and give only the class name. bucket B

Entry "C=CCOC(=O)[C@H]1[C@@H]2C(=O)O[C@@H](c3ccccc3)[C@@H](c3ccccc3)N2[C@@H](c2ccc(OCCOC(=O)[C@@H]3C[C@@H]4C(=O)NCC(=O)N4[C@@H]3c3ccc(O)cc3)cc2)[C@]12C(=O)Nc1ccccc12" belongs to which category? bucket A

Which category fits this record: "COc1c(C)cc(-c2cc3c(c(-c4ccc(Oc5ccccc5)cc4)n2)[Si](C(C)C)(C(C)C)OC3)cc1C" bucket B

----------
Test system: Inhibin beta A chain (activin A)
methodSummary: INHBA (activin A) binders on microarrays, primary screen, biochemical, small-molecule microarray, 635 nm fluorescence scan (AID 1107);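 further: mouse activin A protein probed at 4.33 µg/mL on printed slides; score merges bound-protein fluorescence near 667 nm with spot signal-to-noise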
measurementSetup: small-molecule microarray binding, higher = more signal
Rule: composite z-score of 0.9 or more gives TRUE; anything lower gives FALSE.

Could you please find out whether "COC(=O)[C@@]1(Cc2ccc(OC)cc2)[C@H]2c3cc(C(=O)N4CCCC4)n(CCc4c[nH]c5cc(F)ccc45)c3C[C@H]2CN1C(=O)c1ccccc1" has composite z-score that meets 0.9 or exceeds it? FALSE

Is composite z-score for "C=CC[C@@]1(C(=O)N2CCOCC2)N=C(c2ccc(OCCCO)cc2)O[C@@H]1c1ccccc1N=[N+]=[N-]" at or above 0.9? TRUE

In plain terms: is recorded composite z-score at least 0.9 for CCOC(=O)C1=CCC(c2ccc(C#N)cc2)N(S(=O)(=O)c2ccc(C)cc2)C1 (stereo not drawn) ? FALSE

Could you tell me if the measured composite z-score of COc1cc(C(O)C2C=CC3C(=O)N(c4ccccc4)C(=O)C3N2Nc2ccc(C#N)cc2)cc(OC)c1OC (stereo not drawn) reaches 0.9 or more? FALSE

# bool: composite z-score of "CC(C)NC(=O)[C@@]1(Cc2ccccc2I)c2ccccc2C(=O)N(Cc2ccccc2)[C@H]1c1ccc(CO)cc1" >= 0.9 FALSE

Hi, just wondering whether "NC(=O)NCC#Cc1ccc2c(c1)[C@]1(C(=O)N2)[C@H](C(=O)N2CCCCCCC2)[C@H]2C(=O)O[C@H](c3ccccc3)[C@H](c3ccccc3)N2[C@@H]1c1ccc(OCCO)cc1" shows composite z-score of 0.9 or higher. TRUE

Textbook exercise: given the entry "C=CCNC(=O)[C@@H]1[C@H]2C(=O)O[C@H](c3ccccc3)[C@H](c3ccccc3)N2[C@H](c2ccc(O)cc2)[C@@]12C(=O)N(C(=O)OCCOC)c1ccccc12" , state whether its composite z-score is greater than or equal to 0.9. FALSE

Does the compound "CCCC[C@H]1OB(O)C[C@H]2C1=C(C)C[C@H]1C(=O)N(Cc3ccccc3)C(=O)[C@H]12" have recorded composite z-score that is 0.9 or more? FALSE

# bool: composite z-score of "O=C1N(CCS(=O)(=O)c2ccccc2)Cc2ccccc2[C@H]2OC(c3ccc(OCCCO)cc3)=N[C@@]12CCS(=O)(=O)c1ccccc1" >= 0.9 TRUE

Could you tell me if the measured composite z-score of "[N-]=[N+]=NCc1ccccc1C[C@]1(C(=O)NCCN2CCOCC2)N=C(c2ccc(OCCCO)cc2)O[C@H]1c1ccccc1N=[N+]=[N-]" reaches 0.9 or more? FALSE

Would you say "CCCC[C@@H]1C[C@H]1[C@@H](NC(=O)c1ccc(-c2ccccc2)cc1)c1ccc(-c2ccccc2)cc1" shows composite z-score at minimum 0.9? TRUE

Decide: is the reported value of composite z-score for "[N-]=[N+]=Nc1ccccc1[C@H]1OC(c2ccc(OCCCO)cc2)=N[C@@]1(CCS(=O)(=O)c1ccccc1)C(=O)O" equal to or greater than 0.9? TRUE

----------
System: Noggin (protein binding on small-molecule microarray)
methodSummary: Noggin binders on small-molecule microarray, primary screen, biochemical, 635/667 nm fluorescence (AID 1095);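 further: score merges 667 nm feature fluorescence with signal to noise over triplicate slides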
measurementSetup: 635 nm fluorescence, higher = more signal
For each record, write down the corresponding composite z-score.
Give a plain numeric answer without units written out.

Requested field: composite z-score. Item: "Cc1ccc(S[C@]2(C(=O)NCC(C)C)CC(=O)N(Cc3ccccc3)[C@@H]2c2ccc(CO)cc2I)cc1" 0.8

Sample CCOC(=O)C1=CCC(C(C)(C)C)N(S(=O)(=O)c2ccc(C)cc2)C1 (stereo not given) — what was its composite z-score? 1.47

Please give the measured composite z-score for this compound: CN1C=C(C(=O)OCCS(C)(=O)=O)C(C(=O)OCCS(C)(=O)=O)=CC(CCCO)=CC1C1CC1 (stereo not given) 0.332

Return reported composite z-score; argument: "COc1ccc(C(=O)Nc2cccc(CN3C(=O)[C@]4(O[C@H](CC(=O)N5CCC[C@H]5CO)[C@@H]([Si](C)(C)c5ccc(OC)cc5)[C@@H]4C)c4ccccc43)c2)cc1" 0.467

Look at this compound and give its reported composite z-score. CC(C)c1ccc(NN2C(C(O)c3cccc(O)c3)C=CC3C(=O)N(c4ccccc4)C(=O)C32)cc1 (stereo not given) 0.527

May I ask what composite z-score has been recorded for "CCCC[C@@H]1C[C@H]1[C@@H](NC(=O)c1ccc(-c2ccccc2)cc1)c1ccc(-c2ccccc2)cc1" ? 0.677

Bench note: what composite z-score did "CC(C)C[C@@H]1NC(=O)[C@@H]2C[C@H](C(=O)NCCCCCC[N+](C)(C)C)[C@H](c3ccc(O)cc3)N2C1=O" show? 0.857

// returns reported composite z-score for input Cc1ccccc1C(O)C1C=CC2C(=O)N(C)C(=O)C2N1Nc1ccccc1 (stereo not given) -0.657

// query composite z-score value for entry "COc1ccc([Si](C)(C)[C@@H]2[C@@H](CC(=O)N3CCC[C@H]3CO)O[C@]3(C(=O)N(C)c4c(Br)cc(C)cc43)[C@H]2C)cc1" 0.804

Give the measured composite z-score of "O=C(O)[C@@]1(Cc2ccccc2)N=C(c2ccc(OCCCO)cc2)O[C@H]1c1ccccc1" . 0.454

Any idea what composite z-score was measured for "CC(C)NC(=O)[C@@H]1c2ccccc2C(=O)N(Cc2ccccc2)[C@H]1c1ccc(CO)cc1" ? -0.905

Recorded composite z-score for "COCCOC(=O)N1C(=O)[C@@]2(c3cc(C#CCNC(N)=O)ccc31)[C@H](c1ccc(O)cc1)N1[C@H](c3ccccc3)[C@H](c3ccccc3)OC(=O)[C@H]1[C@@H]2C(=O)Nc1nc2ccccc2s1" , please? 1.23

Quick one: composite z-score for "C=CC(=C)C1=CCO[C@@H]1[C@H]1CCCN1S(=O)(=O)c1ccccc1[N+](=O)[O-]" ? 0.35

// composite z-score lookup, key: "Cc1ccc(S[C@]2(C(=O)NCCN3CCOCC3)CC(=O)N(Cc3cc(C(F)(F)F)cc(C(F)(F)F)c3)[C@@H]2c2ccc(CO)cc2I)cc1" -1.06

Recorded composite z-score of "CCOC(=O)C1=C[C@@H](C(C)C)N(S(=O)(=O)c2ccc(C)cc2)[C@H]1c1ccc(C(C)C)cc1" , please. 0.75
